- Tested on: HCT116;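 note: Luminescence-based viability readout, five doses per compound, normalized against on-plate DMSO and empty-well controls, followed by dose-response curve fitting for every drug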
- Assay procedure: efficacy (fitted maximal change in viability relative to DMSO control); higher = less cytotoxic (negative = loss of viability)
- Details: 48 h
Structures can show the parent of a compound that is named as a salt.
Overview of recorded efficacy for various compounds
Just the number please, in %, no unit attached.

Q. I would be grateful if you could share the reported efficacy for CC(C)(Sc1cc(C(C)(C)C)c(O)c(C(C)(C)C)c1)Sc1cc(C(C)(C)C)c(O)c(C(C)(C)C)c1 [Probucol] .
A. -25.9

Q. I would be grateful if you could share the reported efficacy for NC\1=N\C(=O)N(\C=N1)[C@H]2C[C@H](O)[C@@H](CO)O2 [Decitabine] .
A. -42.1

Q. I would be grateful if you could share the reported efficacy for CN(C)CC[C@H](CSc1ccccc1)Nc1ccc([S+](=O)([O-])NC(=O)c2ccc(N3CCN(Cc4ccccc4-c4ccc(Cl)cc4)CC3)cc2)cc1[N+](=O)[O-] [ABT-737] .
A. -68.4

Q. I would be grateful if you could share the reported efficacy for C#Cc1cccc(Nc2ncnc3cc(OCCOC)c(OCCOC)cc23)c1 [Erlotinib] .
A. -47.1

Q. I would be grateful if you could share the reported efficacy for CCOC(=O)[C@@]1(CCCCCCOc2ccc(Cl)cc2)CO1 [Etomoxir] .
A. -42.1

New cases:
Q. I would be grateful if you could share the reported efficacy for CC(C)OC1=C(F)C=C(C=C1)C2=N[N]([C@@H](C)C/3=C(C4=CC(=CC=C4)F)/C(=O)C5=CC(=CC=C5O3)F)C6=C2C(=NC=N6)N [Umbralisib] .
A. -35.3

Q. I would be grateful if you could share the reported efficacy for CCC[C@H](Nc1nc(-c2ccc(NC(=O)NCC)c(OC)c2)ncc1C)c1cccnc1 [Lexibulin hydrochloride] .
A. -73.5

Q. I would be grateful if you could share the reported efficacy for Cc1ccc(Sc2ccccc2N2CCNCC2)c(C)c1 [Brintellix] .
A. -92.6

Q. I would be grateful if you could share the reported efficacy for Cl.NC(CO)C(=O)NNCc1ccc(O)c(O)c1O (stereo unspecified) [Benserazide] .
A. -65.3

Q. I would be grateful if you could share the reported efficacy for CN(C)c1nc(N(C)C)nc(N(C)C)n1 [Altretamine] .
A. -12.2

Q. I would be grateful if you could share the reported efficacy for N[C@@H](Cc1ccc(N(CCCl)CCCl)cc1)C(=O)O [Melphalan] .
A. -56.5

Q. I would be grateful if you could share the reported efficacy for C1=CC2=N/C(=N\c3ccc(OCCN4CCCC4)c(c3)COC/C=C/COCc3cccc2c3)N1 [Pacritinib] .
A. -89.9
